# Tested on: MS2 coat protein
# Procedure details: apparent Kd, MS2 coat protein; higher = weaker binding; RNA-MaP array; tryptophan 2.4 mM where present
# Particulars: designed as: ON switch for tryptophan; no ligand
Reported apparent Kd values are given for each entry in this list.
Report only the number, with the unit nM understood.

Polymer sequence	Measured target	Unit abbrev	Measured
CUACAUUUGUAGAAACCGGUCAACAUUAUUCGAGGACCGGUACGGCCGCCACUCGUAUAUUUUUAUACAUGAGGAUCACCCAUGU	MS2 coat protein	nM	12
CUUGACAUGAGGAUCACCCAUGUUGGUAAACGAGGACCGGUACGGCCGCCACUCGGUUACGUGUAGUACCGGUAAGAUCCAGGGU	MS2 coat protein	nM	29.3

Read the next record carefully.
Query :: apparent Kd lookup needed for `AUAAUAAUCCUCAUGUAAGGUCCUCGAUAACGAGGACCGGUACGGCCGCCACUCGAACAUGAGGAUCACCCAUGUACGAGGACCA` , thanks.
Result :: 42.5
